assay: Volume of distribution in Sprague-Dawley rat at 1.3 mg/kg, iv or 7.7 mg/kg, po; format: ADME, organism-based; settings: in vivo, read-out: Vdss
reported-metric: Vd (L/kg)
# number only, unit L/kg dropped from output

Look up Vd for this compound: `O=c1c(C2=NS(=O)(=O)c3ccccc3N2)c(O)c2ccccc2n1CCC1CC1` 0.25

###

test: Volume of distribution in Beagle dog at 0.8 mg/kg, iv or 1.8 mg/kg, po; assay type: ADME, organism-based, Canis lupus familiaris; conditions: in vivo, read-out: Vdss
reported-metric: Vd (L/kg)
# value in L/kg; strip the unit string

Any idea what Vd was measured for `CC(C)CCn1c(=O)c(C2=NS(=O)(=O)c3ccccc3N2)c(O)c2ccccc21` ? 0.53
